# assay-system: α2B Human Adrenergic Receptor (Homo sapiens)
# Construct: expressed in transfected cells; host or cells: Y-1 cells
# Sequence (P18089 whole entry): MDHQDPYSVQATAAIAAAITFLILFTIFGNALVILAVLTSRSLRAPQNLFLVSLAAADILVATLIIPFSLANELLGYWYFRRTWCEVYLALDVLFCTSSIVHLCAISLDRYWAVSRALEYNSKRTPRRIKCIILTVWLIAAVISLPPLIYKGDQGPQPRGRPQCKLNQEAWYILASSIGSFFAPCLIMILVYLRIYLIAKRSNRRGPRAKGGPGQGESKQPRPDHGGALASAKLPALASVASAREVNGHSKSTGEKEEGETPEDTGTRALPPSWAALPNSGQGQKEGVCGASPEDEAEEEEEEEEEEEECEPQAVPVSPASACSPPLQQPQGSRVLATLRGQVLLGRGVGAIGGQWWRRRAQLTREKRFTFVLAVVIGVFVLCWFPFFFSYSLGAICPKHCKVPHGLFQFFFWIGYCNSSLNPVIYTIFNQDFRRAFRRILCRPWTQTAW
# Assay type: cell-based
quantity-name: I.A Alpha-2 B
Returns: the value as a bare number; no unit string appended.

{"compound-smiles": "Brc1cc(NC2=NCCN2)c(Br)c2[nH]cnc12", "I.A Alpha-2 B": 0.50}

input: Quote I.A Alpha-2 B reported for `Cc1cc(NC2=NCCN2)c(Br)c2[nH]cnc12` please.
output: 0.90

input: Quote I.A Alpha-2 B reported for `Cc1nc2ccc(NC3=NCCN3)c(Br)c2[nH]1` please.
output: 0.60

input: Quote I.A Alpha-2 B reported for `FC(F)(F)c1nc2ccc(NC3=NCCN3)c(Br)c2[nH]1` please.
output: 0.80

input: Quote I.A Alpha-2 B reported for `CC(C)c1nc2ccc(NC3=NCCN3)c(Br)c2[nH]1` please.
output: 0.80

input: Quote I.A Alpha-2 B reported for `Brc1cc2nc[nH]c2c(Br)c1NC1=NCCN1` please.
output: 0.90

input: Quote I.A Alpha-2 B reported for `Brc1cc(NC2=NCCN2)cc2[nH]cnc12` please.
output: 0.60
